- Target: human PTK7 on non-engineered cells (human), Q13308
- Method Summary: cell-based or functional assay
Listed next: entries and their corresponding EC50, saporin (Fab-ZAP) cell killing, HEK293T Cells.
Endpoint Name: EC50, saporin (Fab-ZAP) cell killing, HEK293T Cells (pM)

>>> numeric_value("SC6.23 (antibody, V domains shown) VH: QVTLKESGPGILKPSQTLSLTCSFSGFSLSTSNMGVGWIRQPSGKGLEWLAHIWWDDDKYYNPSLKSQLTISKDTSRNQVFLKITSVDTEDTATYYCVRSNYGYAWFAYWGQGTLVTVSA VL: DIKMTQSPSSMYASLGERVTITCKASQDIYPYLNWFQQKPGKSPKTLIYRTNRLLDGVPSRFSGSGSGQDYSLTISSLDYEDMGIYYCLQYDEFPLTFGAGTKLELK")
3
>>> numeric_value("SC6.58 (antibody, V domains shown) VH: EVKLLESGGGLVQPGGSLKLSCAASGFDFSRYWMSWVRQAPGKGLEWIGDLNPDSSAINYTPSLKDKFIISRDNAKNTLYLQMSKVRSEDTALYYCTLITTLVPYTMDFWGQGTSVTVSS VL: ETTVTQSPASLSMAIGEKVTIRCITNTDIDDDMNWYQQKPGEPPKLLISEGNGLRPGVPSRFSSSGYGTDFVFTIENMLSEDVADYYCLQSDNLPLTFGSGTKLEIK")
86.8
>>> numeric_value("SC6.41 (antibody, V domains shown) VH: EVQLQQSGAESVRSGASVKLSCTASGLNIKDYYMHWVNLRPEQGLEWIGWIDPENGDTEYAPEFQGKATMTADTSSNTAYLQLSSLTSEDTAVYYCNACNYGSAYGYWGQGTTLTVSS VL: DIVLTQATPSVPVTPGESVSISCRSSKSLLHTKGDTYLYWFLQRPGQSPQLLIYRMSNLASGVPDRFSGSGSGTVFTLRISRVEAEDVGVYYCMQHLEYPFTFGSGTKLEIKR")
5.7
>>> numeric_value("SC6.24 (antibody, V domains shown) VH: QVQLQQSGPEVVRPGVSVKISCKGSGYTFTDYAVHWVKLSHAKSLEWIGVISTYNDYTYNNQDFKGKATMTVDKSSSTAYMELARLTSEDSAIYYCARGNSYFYALDYWGQGTSVTVSS VL: DIVLTQSPASLAVSLGQRATISCRASESVDSYGKSFMHWYQQRPGQPPKLLIYRASNLESGIPARFSGSGSRTDFTLTINPVEADDVATYYCQQSNEDPWTFGGGTKLEIK")
11
